Where do these numbers come from? They come from ChEMBL document CHEMBL1137085.

Target: Growth hormone secretagogue receptor type 1 (Sus scrofa)
Sequence (Q95254 whole entry): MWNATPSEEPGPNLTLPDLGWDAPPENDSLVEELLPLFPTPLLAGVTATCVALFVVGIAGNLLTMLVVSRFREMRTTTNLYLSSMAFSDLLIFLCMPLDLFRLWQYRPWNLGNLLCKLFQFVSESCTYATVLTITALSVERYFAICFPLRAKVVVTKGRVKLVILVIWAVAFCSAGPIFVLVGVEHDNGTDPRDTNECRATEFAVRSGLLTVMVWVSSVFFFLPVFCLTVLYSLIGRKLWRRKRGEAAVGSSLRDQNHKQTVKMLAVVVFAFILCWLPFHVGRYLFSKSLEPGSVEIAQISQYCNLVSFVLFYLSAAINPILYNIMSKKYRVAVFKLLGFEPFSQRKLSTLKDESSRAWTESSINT
Assay: Inhibition against pig growth hormone secretagogue (GHS) receptor
ASSAY_READOUT: IC50
Don't forget the unit after the value.

Task: // query IC50 value for entry CC(C)(N)CC(=O)N[C@@H]1CCc2ccccc2N(Cc2ccc(-c3ccccc3-c3nnn[nH]3)cc2)C1=O
Output: 63 nM
